Catalogue of pIC50 readings, one per entry.
Target: human S1P1 receptors (Homo sapiens, UniProt P21453)
Sequence (P21453 whole entry): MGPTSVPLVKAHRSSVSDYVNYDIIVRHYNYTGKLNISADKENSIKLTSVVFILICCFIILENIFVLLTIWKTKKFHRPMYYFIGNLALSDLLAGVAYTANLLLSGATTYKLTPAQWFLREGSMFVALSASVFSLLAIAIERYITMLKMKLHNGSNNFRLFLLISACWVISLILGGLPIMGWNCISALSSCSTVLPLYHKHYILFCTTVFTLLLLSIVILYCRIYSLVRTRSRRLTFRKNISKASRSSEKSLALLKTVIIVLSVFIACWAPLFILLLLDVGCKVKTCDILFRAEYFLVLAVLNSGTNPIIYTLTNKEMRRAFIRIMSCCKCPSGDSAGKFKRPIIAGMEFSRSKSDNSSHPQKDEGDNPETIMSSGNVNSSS
Assay: S1P1R antagonist assay (fluorescent membrane potential dye, cAMP readout)
Conditions: HEK293 cells expressing human S1P1 receptors and CNG channel; 500 nM NECA; S1P1R agonist 10 nM; 90 minutes; read-out: EC50 or IC50 value
pIC50: −log10 of the molar value.
PARAMETER: pIC50

INSERT INTO measurements (compound, assayed_target, experimental_result) VALUES
  ('COc1cccc2cc(C(=O)NC(COCc3ccccc3)C(=O)Nc3ccc(Oc4ccccc4)cc3)oc12 (stereo not shown)', 'human S1P1 receptors (Homo sapiens, UniProt P21453)', '< 6.00'),
  ('O=C(Cn1cncn1)N[C@@H](COCc1ccccc1)C(=O)Nc1ccc(Sc2ccc(F)cc2)cc1', 'human S1P1 receptors (Homo sapiens, UniProt P21453)', '≥ 6.52'),
  ('COc1ccc(CCC(=O)NC(COCc2ccccc2)C(=O)Nc2ccc(Oc3ccccc3)cc2)cc1OC (stereo not shown)', 'human S1P1 receptors (Homo sapiens, UniProt P21453)', '6.00 to 6.52'),
  ('CN(C)c1ccc(CC(=O)N2C[C@H](Cc3ccccc3)C[C@H]2C(=O)Nc2ccc(Oc3ccc(F)cc3)cc2)cc1', 'human S1P1 receptors (Homo sapiens, UniProt P21453)', '≥ 6.52'),
  ('O=C(NC(COCc1ccccc1)C(=O)Nc1ccc(Oc2ccccc2)cc1)C1CCC1 (stereo not shown)', 'human S1P1 receptors (Homo sapiens, UniProt P21453)', '< 6.00'),
  ('O=C(Nc1ccc(Oc2ccc(F)cc2)cc1)[C@@H]1C[C@@H](Cc2ccc(F)cc2F)CN1C(=O)Cn1ccnn1', 'human S1P1 receptors (Homo sapiens, UniProt P21453)', '≥ 6.52'),
  ('Cc1ccc(C)c(CC(=O)NC(COCc2ccccc2)C(=O)Nc2ccc(Oc3ccccc3)cc2)c1 (stereo not shown)', 'human S1P1 receptors (Homo sapiens, UniProt P21453)', '< 6.00');

Data provenance is patent US8791102B2.
